assayedTarget: Plant p-Hydroxyphenylpyruvate Dioxygenase (Arabidopsis enzyme overexpressed in E. coli) (Arabidopsis thaliana, UniProt P93836)
Construct: The first 11 cycles identified […]; initiator Met (ATG start codon put in front of Ser30 by oligos CAM32/CAM33) (N, cleaved yes); made in house; host or cells: E. coli BL21(DE3) carrying pE24CP1 (pET24c(+) backbone), IPTG-induced; cell extract
Sequence (P93836 30-445): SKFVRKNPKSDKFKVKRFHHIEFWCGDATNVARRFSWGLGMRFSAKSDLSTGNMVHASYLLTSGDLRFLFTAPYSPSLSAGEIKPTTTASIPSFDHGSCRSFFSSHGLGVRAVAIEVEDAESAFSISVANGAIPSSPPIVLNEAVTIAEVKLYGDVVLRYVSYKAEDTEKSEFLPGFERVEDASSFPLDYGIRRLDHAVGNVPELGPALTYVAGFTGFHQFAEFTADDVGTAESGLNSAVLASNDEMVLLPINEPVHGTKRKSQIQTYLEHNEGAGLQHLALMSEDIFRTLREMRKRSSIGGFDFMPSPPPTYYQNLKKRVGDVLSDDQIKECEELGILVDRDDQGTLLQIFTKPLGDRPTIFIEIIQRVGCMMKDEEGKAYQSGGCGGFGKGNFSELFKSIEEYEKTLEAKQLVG
assayExplanation: continuous spectrophotometric enol borate-tautomerase assay with overexpressed protein
Type: biochemical
conditionLabel: concentration inhibiting the enzyme 50%; absorbance at 308 nm; read-out: I50 value derived from spectrophotometric assay
measuredProperty: pIC50
pIC50 field: float, defined as -log10 of concentration (mol/L).

Value lookup for pIC50; key = CS(=O)(=O)c1cc(C(F)(F)F)ccc1C(=O)c1cnoc1C1CC1
5.98
